Give measured self-cleavage for each item. Keep answers brief.
B1: HDV Ribozyme (parent)
chain: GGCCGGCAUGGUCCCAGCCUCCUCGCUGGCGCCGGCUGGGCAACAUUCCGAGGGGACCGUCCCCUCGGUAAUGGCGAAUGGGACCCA

- Variants of: B1
- test.details: self-cleavage, relative activity (ratio to wild type); higher = more cleavage; co-transcriptional
Respond numerically, and do not add a unit to the figure.

Consider the variant shown here: G11U G73U What is its recorded self-cleavage? 0.111

Consider the variant shown here: C3G G40C What is its recorded self-cleavage? 0.339

Consider the variant shown here: G67A C75U What is its recorded self-cleavage? 0.189

Consider the variant shown here: U23C G59C What is its recorded self-cleavage? 1.26

Consider the variant shown here: C18A C64U What is its recorded self-cleavage? 0.256

Consider the variant shown here: G35C C41U What is its recorded self-cleavage? 0.0978

Consider the variant shown here: C41U A77U What is its recorded self-cleavage? 0.475

Consider the variant shown here: G74U C75U What is its recorded self-cleavage? 0.151

Consider the variant shown here: G1C C3G What is its recorded self-cleavage? 0.443

Consider the variant shown here: U12G C19G What is its recorded self-cleavage? 0

Consider the variant shown here: C36A G80A What is its recorded self-cleavage? 0.12

Consider the variant shown here: C18G C30G What is its recorded self-cleavage? 0.222

Consider the variant shown here: C33U U37A What is its recorded self-cleavage? 0.17

Consider the variant shown here: G50C C64U What is its recorded self-cleavage? 0.728

Consider the variant shown here: G11C G17A What is its recorded self-cleavage? 0.231

Consider the variant shown here: G54U U79G What is its recorded self-cleavage? 0.266

Consider the variant shown here: G25U G74C What is its recorded self-cleavage? 0.0308

Consider the variant shown here: C30U G59U What is its recorded self-cleavage? 0.831

Consider the variant shown here: C3A G40A What is its recorded self-cleavage? 0.412

Consider the variant shown here: U72A C86A What is its recorded self-cleavage? 0.79

Consider the variant shown here: C4U G55U What is its recorded self-cleavage? 0.639

Consider the variant shown here: C19A C64U What is its recorded self-cleavage? 0.128

The values you see were collected from the RNAGym collection of RNA variant scans (doi:10.7554/elife.80360).
